Recorded growth by entry
# System: SK-MEL-2 melanoma
# Measurement protocol: NCI-60 one-dose screen, 48 h (100 = growth as untreated, 0 = no growth, -100 = all killed)
# Test context: 10 µM unless noted
About 83,000 compounds went through this panel and 20% of them were active in at least one assay; those are over-represented in the sample as a whole.
Field format: number, assumed %, no unit text.

Consider the following illustrative entries.
O=C(NNC(=S)Nc1ccccc1)c1ccc(Nc2ncnc3c2cnn3-c2cccc(Br)c2)cc1 ... 105
O=C(Nc1cccc(Cl)c1)Nc1cc(C(F)(F)F)ccc1Cl ... 4.93

**Query** growth lookup needed for C#CC[C@@H]1C[C@]2(C)[C@H]3CC[C@@H]4[C@H]5C(C(=C)C)CC[C@]5(C(=O)NCCN(CCN)CCN)CC[C@@]4(C)[C@]3(C)CC[C@H]2C(C)(C)[C@H]1OC(C)=O (stereo partly drawn) , thanks.
**Result** 112

The measurements presented in this section are drawn from PubChem BioAssay (NCI).
